Tested on: Pancreatin
test method notes: Protease stability in simulated intestinal fluid (Pancreatin-SIF, FaSSIF)
Assay type: in vitro ADME
experimental context: 240 min, 1 μM peptide, 37° C., read-out: FaSSIF 240 (min), remaining percent of peptide
Starred links: 1 amine or outer side, 2 acyl side, 3 side chain; linkers in the order of their positions; H or OH if unused. Positions of bridges follow the written chain, without caps; N, C: chain ends. Non-standard residues stand in square brackets, D forms with d. Residues, ends and D or L forms follow the SMILES beside them. *: point of attachment. X3 = CN(CCCCC(=O)N[C@@H](CS[*:2])C(=O)[*:1])[*:3]; Trp(7-Me) = Cc1cccc2c(C[C@H](N)C(=O)O)c[nH]c12; X1 = O=C(CCCCN[*:3])N[C@@H](CS[*:2])C(=O)[*:1]; αMeLys(Me2) = CN(C)CCCC[C@](C)(N)C(=O)O; 2Nal = N[C@@H](Cc1ccc2ccccc2c1)C(=O)O; AEF = NCCOc1ccc(C[C@H](N)C(=O)O)cc1; NMe5Ava = CN(CCCCC(=O)[*:2])[*:1]; 3Pal = N[C@@H](Cc1cccnc1)C(=O)O; αMeL = CC(C)C[C@](C)(N)C(=O)O; Thp = NC1(C(=O)O)CCOCC1; Me2NCH2CH2 = CN(C)CC*; Aib = CC(C)(N)C(=O)O; Ava = NCCCCC(=O)O; βAla = NCCC(=O)O; Sar = CNCC(=O)O
Provide the reported remaining at 4 h, 1 µM of each item.
Hi! Could you send only the number? It should be in %, unit omitted.

Challenge: What remaining at 4 h, 1 µM value was documented for this molecule, COc1ccc(C[C@@H]2NC(=O)[C@@H]3CSSC[C@H](NC(=O)CCCCNC(=O)CC[C@@H](C(=O)N[C@@H](CC(N)=O)C(=O)N[C@@H](CC(N)=O)C(N)=O)NC(=O)C(C)(C)NC(=O)[C@H](Cc4ccc5ccccc5c4)NC2=O)C(=O)N[C@@H](CC(N)=O)C(=O)N[C@@H]([C@@H](C)O)C(=O)N[C@@H](Cc2c[nH]c4ccccc24)C(=O)N[C@@H](CCC(N)=O)C(=O)N3)cc1 [compound 1] ([Ava]CNTWQCY(Me)[2Nal][Aib]ENN-NH2; disulfide 2-7; lactam N-11) ?
Response given: 58

Challenge: # get_value(readout='remaining at 4 h, 1 µM', item= CC(=O)NCCCC[C@@H]1NC(=O)[C@H](Cc2c[nH]c3c(C)cccc23)NC(=O)[C@H]([C@@H](C)O)NC(=O)[C@H](CC(N)=O)NC(=O)[C@@H]2CSSC[C@H](NC1=O)C(=O)N[C@@H](Cc1ccc(OCCN(C)C)cc1)C(=O)N[C@@H](Cc1ccc3ccccc3c1)C(=O)N[C@@](C)(CCCCN(C)C)C(=O)N[C@H](C(=O)N[C@@H](CC(N)=O)C(=O)N[C@H](CC(C)C)C(N)=O)CCC(=O)NCCCCC(=O)N2 [compound 54] ([Ava]CNT[Trp(7-Me)]K(Ac)CY(Me2NCH2CH2)[2Nal][αMeLys(Me2)]EN[dL]-NH2; disulfide 2-7; lactam N-11) )
Response given: 90

Challenge: Which measured remaining at 4 h, 1 µM value corresponds to CC(=O)NCCCC[C@@H]1NC(=O)[C@H](Cc2c[nH]c3c(C)cccc23)NC(=O)[C@H]([C@@H](C)O)NC(=O)[C@H](CC(N)=O)NC(=O)[C@@H]2CSSC[C@H](NC1=O)C(=O)N[C@@H](Cc1ccc(OCCN(C)C)cc1)C(=O)N[C@@H](Cc1ccc3ccccc3c1)C(=O)NC1(CCOCC1)C(=O)N[C@H](C(=O)N[C@@H](CC(N)=O)C(=O)N[C@@H](Cc1c[nH]cn1)C(=O)NCCC(N)=O)CCC(=O)NCCCCC(=O)N2 [compound 49] ([Ava]CNT[Trp(7-Me)]K(Ac)CY(Me2NCH2CH2)[2Nal][Thp]ENH[βAla]-NH2; disulfide 2-7; lactam N-11) ?
Response given: 74

Challenge: May I ask what remaining at 4 h, 1 µM has been recorded for CC(=O)NCCCC[C@@H]1NC(=O)[C@H](Cc2c[nH]c3c(C)cccc23)NC(=O)[C@@H](NC(C)=O)CCCCNC(=O)[C@@H]2CSSC[C@H](NC1=O)C(=O)N[C@@H](Cc1ccc(OCCN(C)C)cc1)C(=O)N[C@@H](Cc1ccc3ccccc3c1)C(=O)N[C@@](C)(CC(C)C)C(=O)N[C@H](C(=O)N[C@@H](CC(N)=O)C(=O)N[C@@H](Cc1cccnc1)C(=O)N(C)CC(N)=O)CCC(=O)NCCCCC(=O)N2 [compound 73] (Ac-K[Trp(7-Me)]K(Ac)CY(Me2NCH2CH2)[2Nal][αMeL]EN[3Pal][Sar]-NH2; linker 1-4-8 via X1) ?
Response given: 77

Challenge: Reported remaining at 4 h, 1 µM, molecule CC(=O)NCCCC[C@@H]1NC(=O)[C@H](Cc2c[nH]c3c(C)cccc23)NC(=O)[C@@H](NC(C)=O)CCCCNC(=O)[C@@H]2CSSC[C@H](NC1=O)C(=O)N[C@@H](Cc1ccc(OCCN(C)C)cc1)C(=O)N[C@@H](Cc1ccc3ccccc3c1)C(=O)NC(C)(C)C(=O)N[C@H](C(=O)N[C@@H](CC(N)=O)C(=O)N[C@@H](Cc1cccnc1)C(=O)N(C)CC(N)=O)CCC(=O)NCCCCC(=O)N2 [compound 72] (Ac-K[Trp(7-Me)]K(Ac)CY(Me2NCH2CH2)[2Nal][Aib]EN[3Pal][Sar]-NH2; linker 1-4-8 via X1) : ____
Response given: 83

Challenge: State the recorded remaining at 4 h, 1 µM for this entry: CC(=O)NCCCC[C@@H]1NC(=O)[C@H](Cc2c[nH]c3c(C)cccc23)NC(=O)[C@H]([C@@H](C)O)NC(=O)[C@H](CC(N)=O)NC(=O)[C@@H]2CSSC[C@H](NC1=O)C(=O)N[C@@H](Cc1ccc(OCCN(C)C)cc1)C(=O)N[C@@H](Cc1ccc3ccccc3c1)C(=O)NC1(CCOCC1)C(=O)N[C@H](C(=O)N[C@@H](CC(N)=O)C(=O)N[C@@H](Cc1cccnc1)C(N)=O)CCC(=O)NCCCCC(=O)N2 [compound 51] ([Ava]CNT[Trp(7-Me)]K(Ac)CY(Me2NCH2CH2)[2Nal][Thp]EN[3Pal]-NH2; disulfide 2-7; lactam N-11)
Response given: 78

Challenge: Please look up its remaining at 4 h, 1 µM: CC(=O)N[C@H]1CCCCNC(=O)[C@@H]2CSSC[C@H](NC(=O)[C@H](CCC(N)=O)NC(=O)[C@H](Cc3c[nH]c4ccccc34)NC1=O)C(=O)N[C@@H](Cc1ccc(OCCN)cc1)C(=O)N[C@@H](Cc1ccc3ccccc3c1)C(=O)NC1(CCOCC1)C(=O)N[C@H](C(=O)N[C@@H](CC(N)=O)C(=O)N[C@@H](CC(N)=O)C(N)=O)CCC(=O)N(C)CCCCC(=O)N2 [compound 13] (Ac-KWQC[AEF][2Nal][Thp]ENN-NH2; linker 1-4-8 via X3)
Response given: 54

Challenge: Entry CC(C)C[C@]1(C)NC(=O)[C@H](Cc2ccc3ccccc3c2)NC(=O)[C@H](Cc2ccc(OCCN(C)C)cc2)NC(=O)[C@@H]2CSSC[C@H](NC(=O)CCCCN(C)C(=O)CC[C@@H](C(=O)N[C@@H](CC(N)=O)C(=O)N[C@@H](CC(N)=O)C(N)=O)NC1=O)C(=O)N[C@@H](CC(N)=O)C(=O)N[C@@H]([C@@H](C)O)C(=O)N[C@@H](Cc1c[nH]c3ccccc13)C(=O)N[C@@H](CCC(N)=O)C(=O)N2 [compound 41] ([NMe5Ava]CNTWQCY(Me2NCH2CH2)[2Nal][αMeL]ENN-NH2; disulfide 2-7; lactam N-11) has what remaining at 4 h, 1 µM?
Response given: 57

* * *

target or system: human interleukin-23 receptor (recombinant human IL-23R-Fc chimera) (Homo sapiens)
Construct: Fc (IgG Fc fusion)
test method notes: Human ELISA IL23/IL23R (assay for specific human IL23R antagonists)
Format: binding
experimental context: Table 10; read-out: Human ELISA IL23/IL23R IC50
Starred links: 1 amine or outer side, 2 acyl side, 3 side chain; linkers in the order of their positions; H or OH if unused. Positions of bridges follow the written chain, without caps; N, C: chain ends. Non-standard residues stand in square brackets, D forms with d. Residues, ends and D or L forms follow the SMILES beside them. *: point of attachment. X3 = CN(CCCCC(=O)N[C@@H](CS[*:2])C(=O)[*:1])[*:3]; Trp(7-Me) = Cc1cccc2c(C[C@H](N)C(=O)O)c[nH]c12; X1 = O=C(CCCCN[*:3])N[C@@H](CS[*:2])C(=O)[*:1]; αMeLys(Me2) = CN(C)CCCC[C@](C)(N)C(=O)O; 2Nal = N[C@@H](Cc1ccc2ccccc2c1)C(=O)O; d2Nal = N[C@H](Cc1ccc2ccccc2c1)C(=O)O; AEF = NCCOc1ccc(C[C@H](N)C(=O)O)cc1; NMe5Ava = CN(CCCCC(=O)[*:2])[*:1]; 3Pal = N[C@@H](Cc1cccnc1)C(=O)O; αMeL = CC(C)C[C@](C)(N)C(=O)O; Me2NCH2CH2 = CN(C)CC*; Aib = CC(C)(N)C(=O)O; Ava = NCCCCC(=O)O; Sar = CNCC(=O)O
IC50 less than 0.5 nM is yes; IC50 greater than or equal to 0.5 nM is no.

Challenge: Would you kindly verify if IC50 of CC(=O)N[C@H]1CCCCNC(=O)[C@@H]2CSSC[C@H](NC(=O)[C@H](CCC(N)=O)NC(=O)[C@H](Cc3c[nH]c4ccccc34)NC1=O)C(=O)N[C@@H](Cc1ccc(OCCN)cc1)C(=O)N[C@@H](Cc1ccc3ccccc3c1)C(=O)NC(C)(C)C(=O)N[C@H](C(=O)N[C@@H](CC(N)=O)C(=O)N[C@@H](CC(N)=O)C(N)=O)CCC(=O)N(C)CCCCC(=O)N2 [compound 12] (Ac-KWQC[AEF][2Nal][Aib]ENN-NH2; linker 1-4-8 via X3) is strictly less than 0.5 nM?
Response given: no

Challenge: Please indicate whether the reported IC50 of CC(=O)N[C@H]1CCCCNC(=O)[C@@H]2CSSC[C@H](NC(=O)[C@H](CCC(N)=O)NC(=O)[C@H](Cc3c[nH]c4ccccc34)NC1=O)C(=O)N[C@@H](Cc1ccc(OCCN)cc1)C(=O)N[C@@H](Cc1ccc3ccccc3c1)C(=O)N[C@@](C)(CC(C)C)C(=O)N[C@H](C(=O)N[C@@H](C)C(=O)NCC(N)=O)CCC(=O)N(C)CCCCC(=O)N2 [compound 18] (Ac-KWQC[AEF][2Nal][αMeL]EAG-NH2; linker 1-4-8 via X3) is strictly below 0.5 nM.
Response given: no

Challenge: Below 0.5 nM on IC50? Entry CC[C@H](C)[C@H](NC(=O)[C@H](CC(N)=O)NC(=O)[C@H](CC(N)=O)NC(=O)[C@@H]1CCC(=O)NCCCCC(=O)N[C@H]2CSSC[C@H](NC(=O)[C@H](CCCCNC(C)=O)NC(=O)[C@H](Cc3c[nH]c4ccccc34)NC(=O)[C@H]([C@@H](C)O)NC(=O)[C@H](CC(N)=O)NC2=O)C(=O)N[C@@H](Cc2ccc(OCCN(C)C)cc2)C(=O)N[C@@H](Cc2ccc3ccccc3c2)C(=O)NC(C)(C)C(=O)N1)C(N)=O [compound 38] ([Ava]CNTWK(Ac)CY(Me2NCH2CH2)[2Nal][Aib]ENNI-NH2; disulfide 2-7; lactam N-11)
Response given: yes

Challenge: Confirm or reject: IC50 of CC(=O)N[C@H]1CCCCNC(=O)[C@@H]2CSSC[C@H](NC(=O)[C@H](CCC(N)=O)NC(=O)[C@H](Cc3c[nH]c4ccccc34)NC1=O)C(=O)N[C@@H](Cc1ccc(OCCN(C)C)cc1)C(=O)N[C@@H](Cc1ccc3ccccc3c1)C(=O)NC(C)(C)C(=O)N[C@H](C(=O)N[C@@H](CC(N)=O)C(=O)NCC(N)=O)CCC(=O)NCCCCC(=O)N2 [compound 29] (Ac-KWQCY(Me2NCH2CH2)[2Nal][Aib]ENG-NH2; linker 1-4-8 via X1) lies strictly below 0.5 nM
Response given: yes

Challenge: In plain terms, does CC(C)C[C@]1(C)NC(=O)[C@H](Cc2ccc3ccccc3c2)NC(=O)[C@H](Cc2ccc(OCCN(C)C)cc2)NC(=O)[C@@H]2CSSC[C@H](NC(=O)CCCCN(C)C(=O)CC[C@@H](C(=O)N[C@@H](CC(N)=O)C(=O)N[C@@H](CC(N)=O)C(N)=O)NC1=O)C(=O)N[C@@H](CC(N)=O)C(=O)N[C@@H]([C@@H](C)O)C(=O)N[C@@H](Cc1c[nH]c3ccccc13)C(=O)N[C@@H](CCC(N)=O)C(=O)N2 [compound 41] ([NMe5Ava]CNTWQCY(Me2NCH2CH2)[2Nal][αMeL]ENN-NH2; disulfide 2-7; lactam N-11) come in under 0.5 nM for IC50?
Response given: yes

Challenge: Please state whether IC50 is below 0.5 nM for CC(=O)NCCCC[C@@H]1NC(=O)[C@H](Cc2c[nH]c3c(C)cccc23)NC(=O)[C@@H](NC(C)=O)CCCCNC(=O)[C@@H]2CSSC[C@H](NC1=O)C(=O)N[C@@H](Cc1ccc(OCCN(C)C)cc1)C(=O)N[C@H](Cc1ccc3ccccc3c1)C(=O)N[C@@](C)(CCCCN(C)C)C(=O)N[C@H](C(=O)N[C@@H](CC(N)=O)C(=O)N[C@@H](Cc1cccnc1)C(=O)N(C)CC(N)=O)CCC(=O)NCCCCC(=O)N2 [compound 149] (Ac-K[Trp(7-Me)]K(Ac)CY(Me2NCH2CH2)[d2Nal][αMeLys(Me2)]EN[3Pal][Sar]-NH2; linker 1-4-8 via X1)
Response given: no
